System: U2OS
Assay: cell viability relative to DMSO; higher = less toxic
Conditions: 72 h; 100 nM
Please go through the items and note down their cell viability.
Please reply with the bare figure in % and do not write the unit itself.

Q: Please report the recorded cell viability for COc1ccc(N2CCOCC2)c2sc(NC(=O)N3CCC(C)(O)CC3)nc12 [tozadenant] .
Result: 102

Q: Please report the recorded cell viability for CC(C)(C)c1ccc(S(=O)(=O)Nc2ccc(Cl)cc2C(=O)c2cc[n+]([O-])cc2)cc1 [vercirnon] .
Result: 97.1

Q: Please report the recorded cell viability for C[C@H](NC(=O)/C(C#N)=C/c1ccc(O)c(O)c1)c1ccccc1 [tyrphostin-AG-835] .
Result: 98.3

Q: Please report the recorded cell viability for CO[C@H]1/C=C/O[C@@]2(C)Oc3c(C)c(O)c4c(O)c(c(/C=N/N=C/N5CCCCC5)c(O)c4c3C2=O)NC(=O)/C(C)=C\C=C\[C@H](C)[C@H](O)[C@@H](C)[C@@H](O)[C@@H](C)[C@H](OC(C)=O)[C@@H]1C .
Result: 99

Q: Please report the recorded cell viability for Cc1ccc(/C=N/NC(=O)c2ccccc2Oc2ccccc2)o1 .
Result: 98.1

Q: Please report the recorded cell viability for CC(C)C(N)=O [isobutyramide] .
Result: 101

Q: Please report the recorded cell viability for c1cnc(NCc2ccc(CNc3ncccn3)cc2)nc1 [MSX-122] .
Result: 106

Q: Please report the recorded cell viability for O=C(Nc1cccc2cccnc12)c1ccc(N2C(=O)[C@@H]3[C@H](C2=O)[C@@H]2C=C[C@H]3C2)cc1 [endo-IWR-1] .
Result: 103

Q: Please report the recorded cell viability for Nc1cc(C(Cl)=C(Cl)Cl)c(S(N)(=O)=O)cc1S(N)(=O)=O [clorsulon] .
Result: 100

Q: Please report the recorded cell viability for C1=Cc2cccc(OCC3CNCCO3)c2C1 (stereo not drawn) [indeloxazine] .
Result: 101

Q: Please report the recorded cell viability for C[C@H](Cc1ccc2c(c1)OC(C(=O)O)(C(=O)O)O2)NC[C@H](O)c1cccc(Cl)c1 .
Result: 99.1

Q: Please report the recorded cell viability for Cn1nc(-c2ccc(C(F)(F)F)cc2)nc2c(=O)n(C)c(=O)nc1-2 [walrycin-B] .
Result: 100

Q: Please report the recorded cell viability for COc1ccc(-c2cc(=O)c3c(OC)c(OC)c(OC)c(OC)c3o2)cc1 [tangeritin] .
Result: 98.9

Q: Please report the recorded cell viability for Cc1c(-c2ccccc2)oc2c(C(=O)OCCN3CCCCC3)cccc2c1=O [flavoxate] .
Result: 93

Q: Please report the recorded cell viability for Cc1c(C)c2c(c(C)c1O)CCC(C)(C)O2 [APC-100] .
Result: 94.3

Q: Please report the recorded cell viability for N#Cc1ncccn1 [2-cyanopyrimidine] .
Result: 96.7

Q: Please report the recorded cell viability for O=C(O)/C=C/CO [trans-4-hydroxycrotonic-acid] .
Result: 102

Q: Please report the recorded cell viability for COc1ccc(NS(=O)(=O)c2ccc(I)cc2)cc1N1CCN(C)CC1 .
Result: 102

###

Tested on: Vero E6
Experiment: cell viability relative to DMSO; higher = less toxic
Details: 72 h; 10000 nM
Please go through the items and note down their cell viability.
Please reply with the bare figure in % and do not write the unit itself.

Q: Please report the recorded cell viability for CCOc1cc(N2CCC(O)CC2)ccc1Nc1ncc2c(n1)N(C)c1ccccc1C(=O)N2C .
Result: 41.2

Q: Please report the recorded cell viability for CCCC1(CCC)CCC2(CCN(CCCN(CC)CC)C2)CC1 .
Result: 16.9

Q: Please report the recorded cell viability for CC(C)CCNC(=O)[C@H](CC(C)C)NC(=O)[C@H]1O[C@@H]1C(=O)O .
Result: 101

Q: Please report the recorded cell viability for CNC(=O)c1ccc(C)c(-n2c(C)cc(OCc3ccc(F)cc3F)c(Br)c2=O)c1 .
Result: 58.8

Q: Please report the recorded cell viability for Cc1onc(-c2ccccc2)c1-c1ccc(S(N)(=O)=O)cc1 .
Result: 99.5

Q: Please report the recorded cell viability for CC(=O)N[C@H](Cc1ccc2ccccc2c1)C(=O)N[C@H](Cc1ccc(Cl)cc1)C(=O)N[C@H](Cc1cccnc1)C(=O)N[C@@H](CO)C(=O)N[C@@H](Cc1ccc(O)cc1)C(=O)N[C@H](CCCNC(N)=O)C(=O)N[C@@H](CC(C)C)C(=O)N[C@@H](CCCNC(=N)N)C(=O)N1CCC[C@H]1C(=O)N[C@H](C)C(N)=O .
Result: 90.3

Q: Please report the recorded cell viability for C=C(C)[C@@H]1CC[C@]2(CO)CC[C@]3(C)[C@H](CC[C@@H]4[C@@]5(C)CC[C@H](O)C(C)(C)[C@@H]5CC[C@]43C)[C@@H]12 .
Result: 106

Q: Please report the recorded cell viability for CC(C)NCC(O)c1ccc([N+](=O)[O-])cc1 (stereo not given) .
Result: 89.6

Q: Please report the recorded cell viability for COc1cc([C@@H]2c3cc4c(cc3[C@@H](O[C@@H]3O[C@@H]5CO[C@@H](C)O[C@H]5[C@H](O)[C@H]3O)[C@H]3COC(=O)[C@H]23)OCO4)cc(OC)c1O [etoposide] .
Result: 80.2

Q: Please report the recorded cell viability for CC#CCn1c(N2CCC[C@@H](N)C2)nc2c1c(=O)n(Cc1nc(C)c3ccccc3n1)c(=O)n2C .
Result: 110

Q: Please report the recorded cell viability for COc1cc(CCc2cc(NC(=O)c3ccc(N4CC(C)NC(C)C4)cc3)n[nH]2)cc(OC)c1 (stereo not given) .
Result: 100

Q: Please report the recorded cell viability for c1cnc(NCc2ccc(CNc3ncccn3)cc2)nc1 .
Result: 99.1

Q: Please report the recorded cell viability for O=C(Nc1cccc2cccnc12)c1ccc(N2C(=O)[C@@H]3[C@H](C2=O)[C@@H]2C=C[C@H]3C2)cc1 [endo-IWR-1] .
Result: 66.7

Q: Please report the recorded cell viability for Cc1cccc(C)c1NC(=O)CN1CCCCCC1 [pincainide] .
Result: 107

Q: Please report the recorded cell viability for CC[C@@H]([C@H](C)O)n1ncn(-c2ccc(N3CCN(c4ccc(OC[C@@H]5CO[C@@](Cn6cncn6)(c6ccc(F)cc6F)C5)cc4)CC3)cc2)c1=O .
Result: 43.2

Q: Please report the recorded cell viability for O=c1cc(-c2ccc(O)c(O)c2)oc2cc(O)cc(O)c12 .
Result: 95.3

Q: Please report the recorded cell viability for COc1ccccc1C1(O)CCN(CCCn2c3ccccc3c3ccccc32)CC1 .
Result: 74.5

Q: Please report the recorded cell viability for COC(=O)C1=C(C)NC(C)=C([N+](=O)[O-])[C@@H]1c1ccccc1C(F)(F)F (racemic) [BAY-K-8644-(+/-)] .
Result: 101

Q: Please report the recorded cell viability for O=C(O)CCCN1C(=O)c2cccc3cccc(c23)C1=O .
Result: 99.1

Q: Please report the recorded cell viability for CC(C)C(N)=O [isobutyramide] .
Result: 105

Q: Please report the recorded cell viability for NC(=O)c1nc(F)cnc1O .
Result: 103

Q: Please report the recorded cell viability for O=S(=O)(O)NC1CCCCC1 .
Result: 106

Q: Please report the recorded cell viability for CCN(CC)C(=O)N[C@H]1C[C@@H]2c3cccc4[nH]cc(c34)C[C@H]2N(C)C1 [terguride] .
Result: 97

Q: Please report the recorded cell viability for COC(=O)CC[C@@H]1N=C(c2ccccn2)c2cc(Br)ccc2-n2c(C)cnc21 .
Result: 99.8

Q: Please report the recorded cell viability for CSCC[C@H](NC(=O)[C@H](CC(C)C)NC(=O)[C@@H](Cc1c[nH]c2ccccc12)NC(=O)[C@H](Cc1ccccc1)N(C)C(=O)[C@@H](Cc1c[nH]c2ccccc12)NC(=O)[C@@H](N)CCCNC(=N)N)C(N)=O .
Result: 96.3

Q: Please report the recorded cell viability for CNC(=O)c1cccc(-c2ccc3c(N4CCOC[C@@H]4C)nc(N4CCOC[C@@H]4C)nc3n2)c1 .
Result: 37.2

Q: Please report the recorded cell viability for CC(=O)Oc1ccccc1C(=O)Oc1ccccc1C(=O)O .
Result: 99.9

Q: Please report the recorded cell viability for CO[C@H]1/C=C/O[C@@]2(C)Oc3c(C)c(O)c4c(O)c(c(/C=N/N=C/N5CCCCC5)c(O)c4c3C2=O)NC(=O)/C(C)=C\C=C\[C@H](C)[C@H](O)[C@@H](C)[C@@H](O)[C@@H](C)[C@H](OC(C)=O)[C@@H]1C .
Result: 90.9

Q: Please report the recorded cell viability for O=C(Nc1ccc(N2CCC(C(=O)N3CCOCC3)CC2)cc1)c1cnc(Oc2ccccc2)nc1 .
Result: 110

Q: Please report the recorded cell viability for N=C(Nc1ccccc1)Nc1ccccc1 .
Result: 104
